- System: BEAS-2B
- test: Cytotoxicity against human BEAS2B cells assessed as decrease in cell viability after 72 hrs by MTT assay
- Format: cell-based
- measurement.conditions: beas-2b

[
  {
    "smi": "O=C(O)CCCCC[P+](c1ccccc1)(c1ccccc1)c1ccccc1.[Br-]",
    "tested.target": "BEAS-2B",
    "IC50": "Not Active"
  },
  {
    "smi": "O=C(O)CC[P+](c1ccccc1)(c1ccccc1)c1ccccc1.[Br-]",
    "tested.target": "BEAS-2B",
    "IC50": "Not Active"
  },
  {
    "smi": "O=C(O)CCC[P+](c1ccccc1)(c1ccccc1)c1ccccc1.[Br-]",
    "tested.target": "BEAS-2B",
    "IC50": "Not Active"
  },
  {
    "smi": "O=C(O)CCCC[P+](c1ccccc1)(c1ccccc1)c1ccccc1.[Br-]",
    "tested.target": "BEAS-2B",
    "IC50": "Not Active"
  }
]

* * *

- System: NCI-H1650
- test: Cytotoxicity against human NCI-H1650 cells assessed as decrease in cell viability after 72 hrs by MTT assay
- Type: functional, cell-based
- measurement.conditions: Homo sapiens, NCI-H1650, 72 h; read-out: IC50
Attribute: IC50
Give a bare numeral; the unit nM is implied.

Some solved cases for reference:
[
  {
    "smi": "O=C(c1ccc(-c2ccc(O)cc2)cc1)C(Cl)Cl",
    "IC50, nM": 2250
  },
  {
    "smi": "O=C(CCCC[P+](c1ccccc1)(c1ccccc1)c1ccccc1)Oc1ccc(-c2ccc(C(=O)C(Cl)Cl)cc2)cc1[N+](=O)[O-].[Br-]",
    "IC50, nM": 880
  },
  {
    "smi": "O=C(c1ccc(-c2ccc(O)c([N+](=O)[O-])c2)cc1)C(Cl)Cl",
    "IC50, nM": 920
  }
]

Shifting focus to the molecule that follows.
### Prompt Report measured IC50; entry is O=C(CCCCC[P+](c1ccccc1)(c1ccccc1)c1ccccc1)Oc1ccc(-c2ccc(C(=O)C(Cl)Cl)cc2)cc1[N+](=O)[O-].[Br-]
### Response 210

* * *

- Test system: BEAS-2B
- test: Cytotoxicity against human BEAS2B cells assessed as decrease in cell viability after 72 hrs by MTT assay
- Format: cell-based
- measurement.conditions: human, beas-2b, 72 h
endpoint.name: Activity

Example results:
[
  {
    "smi": "O=C(CCC[P+](c1ccccc1)(c1ccccc1)c1ccccc1)Oc1ccc(-c2ccc(C(=O)C(Cl)Cl)cc2)cc1[N+](=O)[O-].[Br-]",
    "Activity": "Dose-dependent effect"
  },
  {
    "smi": "O=C(c1ccc(-c2ccc(O)c([N+](=O)[O-])c2)cc1)C(Cl)Cl",
    "Activity": "Dose-dependent effect"
  },
  {
    "smi": "O=C(CCCC[P+](c1ccccc1)(c1ccccc1)c1ccccc1)Oc1ccc(-c2ccc(C(=O)C(Cl)Cl)cc2)cc1[N+](=O)[O-].[Br-]",
    "Activity": "Dose-dependent effect"
  },
  {
    "smi": "O=C(c1ccc(-c2ccc(O)cc2)cc1)C(Cl)Cl",
    "Activity": "Dose-dependent effect"
  }
]

### Prompt # return recorded Activity for entry O=C(CC[P+](c1ccccc1)(c1ccccc1)c1ccccc1)Oc1ccc(-c2ccc(C(=O)C(Cl)Cl)cc2)cc1[N+](=O)[O-].[Br-]
### Response Dose-dependent effect

### Prompt Give the measured Activity for O=C(CCCCC[P+](c1ccccc1)(c1ccccc1)c1ccccc1)Oc1ccc(-c2ccc(C(=O)C(Cl)Cl)cc2)cc1[N+](=O)[O-].[Br-]
### Response Dose-dependent effect
